Data credit: paper PMC8929335

experiment: NHP brain-to-plasma Kp,uu experiment; format: in vivo, cynomolgus monkeys; conditions: cynomolgus, cynomolgus monkey, intravenous
property: Kp uu
Answer with a bare number; do not write a unit.

Looking up Cc1cc(=O)n(-c2ccccc2)n1C [Antipyrine] , I see its Kp uu listed as 0.96
